binders and their reported IC50
Biological target: T1, biotin-labeled human TIGIT protein (human, UniProt Q495A1 22-141, biotin-labeled (sites not given))
T1 construct: also called recombinant human TIGIT
T1 sequence (looked up): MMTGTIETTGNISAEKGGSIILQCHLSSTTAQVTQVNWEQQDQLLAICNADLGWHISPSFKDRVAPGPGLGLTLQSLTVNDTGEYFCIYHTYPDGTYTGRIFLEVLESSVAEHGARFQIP
Test: ELISA blocking assay: CD155-hFc coated, biotin-labeled human TIGIT, antibody titrated
outcome-measure: IC50

binder | result
LP010-02 (Hu02-human IgG1 Fc) (antibody, V domains shown) VH: EVQLQESGPGLVKPSETLSLTCAVSGYSISSGYDWHWIRQPPGKGLEWIGFIRDSGSTVYNPSLKGRITISHDTSKNQFSLKLSSVTAADTAVYYCARGLFWYFDVWGQGTTVTVSS VL: DIQMTQSPSSLSASVGDRVTITCRTSENIFSYLAWYQQKPGKVPKLLIYNTKTLAEGVPSRFSGSGSGTDFTLTISSLQPEDVATYYCQHHYGNPLTFGQGTKLEIK | 0.531 µg/mL
76D12B10-Hu02 (antibody, V domains shown, Humanized, VH.V2 + VK.V0) VH: EVQLQESGPGLVKPSETLSLTCAVSGYSISSGYDWHWIRQPPGKGLEWIGFIRDSGSTVYNPSLKGRITISHDTSKNQFSLKLSSVTAADTAVYYCARGLFWYFDVWGQGTTVTVSS VL: DIQMTQSPSSLSASVGDRVTITCRTSENIFSYLAWYQQKPGKVPKLLIYNTKTLAEGVPSRFSGSGSGTDFTLTISSLQPEDVATYYCQHHYGNPLTFGQGTKLEIK | 1.13 µg/mL
76D12B10-Hu06 (antibody, V domains shown, Humanized, VH.V1 + VK.V1) VH: EVQLQESGPGLVKPSETLSLTCAVSGYSISSGYDWHWIRQPPGKGLEWIGFIRDSGSTVYNPSLKGRVTISHDTSKNQFSLKLSSVTAADTAVYYCARGLFWYFDVWGQGTTVTVSS VL: DIQMTQSPSSLSASVGDRVTITCRTSENIFSYLAWYQQKPGKVPKLLIHNTKTLAEGVPSRFSGSGSGTDFTLTISSLQPEDVATYYCQHHYGNPLTFGQGTKLEIK | 0.866 µg/mL
76D12B10 chimeric antibody (antibody, V domains shown, Mouse variable regions of hybridoma clone 76D12B10; tested as chimeric mAb (detected with anti-human IgG); also called 76D12B10-Chimera; 76D12B10 chimera) VH: DVQLQESGPGMVKPSQSLSLTCTATGYSITSGYDWHWIRHFPGKKLEWMGFIRDSGSTVYNPSLKGRISITHDTSKNRFFLKLNSVTPEDTATYFCARGLFWYFDVWGTGTTVTVSS VL: DIQMTQSPASLSASVGETVTITCRTSENIFSYLAWYQQKQGNSPQLLVHNTKTLAEGVPSRFSGSGSGTQFSLKISNLQPEDFGSYYCQHHYGNPLTFGAGTKLELK | 1.11 µg/mL

# credit: patent US11028172
